TARGET ENTITY: HLA-A*29:02
MEASUREMENT PROTOCOL: IEDB peptide-MHC binding, purified MHC/competitive/radioactivity; filed as Kd, often an IC50 or EC50 that approximates it; bounds were set here for any values at or beyond the usual limits of such assays
REPORTED CONDITIONS: source organism: SARS coronavirus Tor2
Listed below: Kd values for each entry.

>  <INPUT SEQUENCE>
TYVPSQERNF

>  <READING UNIT>
µM

>  <Kd>
1.31

$$$$
>  <INPUT SEQUENCE>
GPDDQIGYY

>  <READING UNIT>
µM

>  <Kd>
6.49

$$$$
>  <INPUT SEQUENCE>
FTILCLVPAY

>  <READING UNIT>
µM

>  <Kd>
0.0155

$$$$
>  <INPUT SEQUENCE>
AFNCTFEYI

>  <READING UNIT>
µM

>  <Kd>
0.322

$$$$
>  <INPUT SEQUENCE>
VTPSGTWLTY

>  <READING UNIT>
µM

>  <Kd>
0.0661

$$$$
>  <INPUT SEQUENCE>
AEDMLNPNY

>  <READING UNIT>
µM

>  <Kd>
3.8

$$$$
>  <INPUT SEQUENCE>
SAAAYFVGY

>  <READING UNIT>
µM

>  <Kd>
0.0655

$$$$
>  <INPUT SEQUENCE>
GYKNVRITF

>  <READING UNIT>
µM

>  <Kd>
3.7

$$$$
>  <INPUT SEQUENCE>
AYLRKHFSM

>  <READING UNIT>
µM

>  <Kd>
6.29

$$$$
>  <INPUT SEQUENCE>
TAEDMLNPNY

>  <READING UNIT>
µM

>  <Kd>
5.5

$$$$
>  <INPUT SEQUENCE>
LQSLENVAY

>  <READING UNIT>
µM

>  <Kd>
6.67

$$$$
>  <INPUT SEQUENCE>
LSFKELLVY

>  <READING UNIT>
µM

>  <Kd>
0.00155

$$$$
>  <INPUT SEQUENCE>
PTITQMNLKY

>  <READING UNIT>
µM

>  <Kd>
0.0484

$$$$
>  <INPUT SEQUENCE>
WFITQRNFF

>  <READING UNIT>
µM

>  <Kd>
0.0136

$$$$
>  <INPUT SEQUENCE>
LSDDAVVCY

>  <READING UNIT>
µM

>  <Kd>
1

$$$$

====

TARGET ENTITY: HLA-B*53:01
MEASUREMENT PROTOCOL: IEDB peptide-MHC binding, purified MHC/competitive/radioactivity; filed as Kd, often an IC50 or EC50 that approximates it; bounds were set here for any values at or beyond the usual limits of such assays
REPORTED CONDITIONS: source organism: Dengue virus 3 Martinique/1243/1999
Listed below: Kd values for each entry.

>  <INPUT SEQUENCE>
GATTETPTW

>  <READING UNIT>
nM

>  <Kd>
69.2

$$$$
>  <INPUT SEQUENCE>
YAQMWSLMYF

>  <READING UNIT>
nM

>  <Kd>
106

$$$$
>  <INPUT SEQUENCE>
EPWLKNNQF

>  <READING UNIT>
nM

>  <Kd>
2580

$$$$

====

TARGET ENTITY: HLA-A*68:02
MEASUREMENT PROTOCOL: IEDB peptide-MHC binding, purified MHC/competitive/fluorescence; filed as Kd, often an IC50 or EC50 that approximates it; bounds were set here for any values at or beyond the usual limits of such assays
REPORTED CONDITIONS: source organism: Brucella suis ATCC 23445
pKd: −log10 of the molar value.
ENDPOINT NAME: pKd

>  <INPUT SEQUENCE>
ITAVNRYFK

>  <TARGET ENTITY>
HLA-A*68:02

>  <ENDPOINT NAME>
pKd

>  <RESULT>
≤ 4.70

$$$$

====

TARGET ENTITY: HLA-B*08:01
MEASUREMENT PROTOCOL: IEDB peptide-MHC binding, purified MHC/competitive/radioactivity; filed as Kd, often an IC50 or EC50 that approximates it; bounds were set here for any values at or beyond the usual limits of such assays
REPORTED CONDITIONS: source organism: Dengue virus 4 Philippines/H241/1956

>  <INPUT SEQUENCE>
MKMKKKTWL

>  <Kd>
62.9 nM

$$$$

====

TARGET ENTITY: HLA-B*45:06
MEASUREMENT PROTOCOL: IEDB peptide-MHC binding, purified MHC/competitive/fluorescence; filed as Kd, often an IC50 or EC50 that approximates it; bounds were set here for any values at or beyond the usual limits of such assays
REPORTED CONDITIONS: source organism: Giardia lamblia ATCC 50803
pKd: −log10 of the molar value.
ENDPOINT NAME: pKd

>  <INPUT SEQUENCE>
RLYPFGSYY

>  <RESULT>
≤ 5.30

$$$$

====

TARGET ENTITY: HLA-A*30:02
MEASUREMENT PROTOCOL: IEDB peptide-MHC binding, purified MHC/competitive/radioactivity; filed as Kd, often an IC50 or EC50 that approximates it; bounds were set here for any values at or beyond the usual limits of such assays
REPORTED CONDITIONS: source organism: Dengue virus 4 Thailand/0348/1991
pKd: −log10 of the molar value.

>  <INPUT SEQUENCE>
SRNSTHEMY

>  <pKd>
5.74

$$$$

====

TARGET ENTITY: HLA-A*68:02
MEASUREMENT PROTOCOL: IEDB peptide-MHC binding, purified MHC/direct/fluorescence; filed as Kd, often an IC50 or EC50 that approximates it; bounds were set here for any values at or beyond the usual limits of such assays
REPORTED CONDITIONS: source organism: Influenza A virus (A/ferret/Maryland/P10-UMD/2008(H9N2))

>  <INPUT SEQUENCE>
NMDKAVKLY

>  <Kd>
≥ 20 µM

$$$$

====

TARGET ENTITY: HLA-A*29:02
MEASUREMENT PROTOCOL: IEDB peptide-MHC binding, purified MHC/competitive/radioactivity; filed as Kd, often an IC50 or EC50 that approximates it; bounds were set here for any values at or beyond the usual limits of such assays
REPORTED CONDITIONS: source organism: Mammarenavirus lassaense
Listed below: Kd values for each entry.

>  <INPUT SEQUENCE>
ESDSKPQKV

>  <CENSORING SIGN>
≥

>  <Kd, µM>
78.9

$$$$
>  <INPUT SEQUENCE>
PEDPIEVALY

>  <CENSORING SIGN>
=

>  <Kd, µM>
10.1

$$$$

====

TARGET ENTITY: HLA-A*24:02
MEASUREMENT PROTOCOL: IEDB peptide-MHC binding, purified MHC/direct/fluorescence; filed as Kd, often an IC50 or EC50 that approximates it; bounds were set here for any values at or beyond the usual limits of such assays
REPORTED CONDITIONS: source organism: Vibrio parahaemolyticus
ENDPOINT NAME: Kd

>  <INPUT SEQUENCE>
ALSMGINTV

>  <RESULT>
≥ 20 µM

$$$$

====

TARGET ENTITY: HLA-B*40:01
MEASUREMENT PROTOCOL: IEDB peptide-MHC binding, purified MHC/direct/fluorescence; filed as Kd, often an IC50 or EC50 that approximates it; bounds were set here for any values at or beyond the usual limits of such assays
REPORTED CONDITIONS: source organism: Shigella flexneri
ENDPOINT NAME: Kd

>  <INPUT SEQUENCE>
VVISKKDTY

>  <ENDPOINT NAME>
Kd

>  <RESULT>
≥ 20 µM

$$$$

====

TARGET ENTITY: HLA-B*08:02
MEASUREMENT PROTOCOL: IEDB peptide-MHC binding, purified MHC/direct/fluorescence; filed as Kd, often an IC50 or EC50 that approximates it; bounds were set here for any values at or beyond the usual limits of such assays
REPORTED CONDITIONS: source organism: Vibrio parahaemolyticus RIMD 2210633

>  <INPUT SEQUENCE>
ALSMGINTV

>  <Kd>
≥ 20 µM

$$$$

====

TARGET ENTITY: HLA-A*31:01
MEASUREMENT PROTOCOL: IEDB peptide-MHC binding, purified MHC/competitive/fluorescence; filed as Kd, often an IC50 or EC50 that approximates it; bounds were set here for any values at or beyond the usual limits of such assays
REPORTED CONDITIONS: source organism: Yellow fever virus 1899/81
pKd: −log10 of the molar value.
ENDPOINT NAME: pKd

>  <INPUT SEQUENCE>
GTHPFSRIR

>  <RESULT NUMBER>
8.22

$$$$
